System: OVCAR-4
Experiment: NCI tumour cell line growth inhibition, 48 h
Active and inactive are the calls of the source. Cut-off read from the data, not from the text of the source: active = GI50 up to about 1.1 µM and inactive = higher.
Outcome field: choose from t (active), f (inactive)

Exam item: Any idea what this test logged for `O=C(CSc1nnc(Cc2ccccc2)o1)Nc1ccc(Cl)cc1Cl` ?
Marked response: f

Exam item: Any idea what this test logged for COCC(C#N)NC1CC(OC2CC(O)(C(=O)CO)Cc3c(O)c4c(c(O)c32)C(=O)c2c(OC)cccc2C4=O)OC(C)C1O (stereo not given) ?
Marked response: t

Exam item: Any idea what this test logged for `Oc1ccc2ccccc2c1NCn1nc(CCCCCCCCc2nn(CNc3c(O)ccc4ccccc34)c(=S)o2)oc1=S` ?
Marked response: f

Exam item: Any idea what this test logged for `N=c1oc2ccccc2cc1C(=O)Nc1cccc2ccccc12` ?
Marked response: f

Exam item: Any idea what this test logged for `CN(C)c1ccc(/C=c2\c3cc([N+](=O)[O-])ccc3n3c2cc(-c2ccccc2)[n+]3C)cc1` ?
Marked response: f

====

# key: entry, value: GI50
Tested on: LXFL 529
Test: NCI tumour cell line growth inhibition, 48 h
Active and inactive are the calls of the source. Rule as the data show it: active = GI50 up to about 1.1 µM and inactive = higher.

For orientation, consider the following solved cases.
>>> result("O=C(Cc1nc2ccccc2s1)C(=O)Nc1ccc(Cl)cc1")
"> 100 µM (inactive)"
>>> result("Cc1cccc(C)c1NC(=O)CCc1nnc2s/c(=C\\c3ccc(Cl)cc3)c(=O)n12")
"75.7 µM (inactive)"
>>> result("CN(CCCN1C(=O)c2cccc3cc([N+](=O)[O-])cc(c23)C1=O)CCN(C)CCCN1C(=O)c2cccc3cc([N+](=O)[O-])cc(c23)C1=O")
"2.45 µM (inactive)"
>>> result("Brc1ccccc1/C=N\\C12CC3CC(CC(C3)C1)C2")
"10.3 µM (inactive)"

Exam item: Provide measured GI50 value, entry: `CCc1cccc(C)c1NC(=O)CCc1n[nH]c(=S)o1`
Marked response: > 100 µM (inactive)

Exam item: Provide measured GI50 value, entry: CC(C)CC(CNC(Cc1ccc(Cl)cc1)C(N)=O)NC(=O)C(Cc1c[nH]cn1)NC(=O)CNC(=O)C(NC(=O)C(C)NC(=O)C(Cc1c[nH]c2ccccc12)NC(=O)C(CCC(=O)O)NC(=O)C(N)Cc1ccccc1)C(C)C (stereo not given)
Marked response: > 133 µM (inactive)

Exam item: Provide measured GI50 value, entry: `Cc1cc(C)nc(NS(=O)(=O)c2ccc(Nc3c4ccccc4nc4c(C(=O)NCCN(C)C)cccc34)cc2)n1`
Marked response: 4.25 µM (inactive)

Exam item: Provide measured GI50 value, entry: COC1CC(n2cc(F)c(N)nc2=O)OC1CO (stereo not given)
Marked response: > 100 µM (inactive)

====

Tested on: SR
Assay: NCI tumour cell line growth inhibition, 48 h
The source made the active and inactive calls. No stated cut-off is given here; in the data, active = GI50 up to about 1.1 µM and inactive = higher.
# key: entry, value: GI50

For orientation, consider the following solved cases.
>>> result("CC(=O)OCC1OC(N2C(c3ccccc3)=CC(c3ccccc3)C(C#N)=C2S)C(OC(C)=O)C(OC(C)=O)C1OC(C)=O (stereo unspecified)")
"42 µM (inactive)"
>>> result("N#Cc1ccccc1OCCOc1ccccc1C#N")
"> 100 µM (inactive)"
>>> result("C/C(=N\\NC(=S)NCCNC(=S)N/N=C(\\C)c1ccccn1)c1ccccn1")
"0.514 µM (active)"
>>> result("CC(=O)c1c(-c2ccc(Cl)cc2)c(C#N)c(=S)n(C2OC(CO)C(O)C(O)C2O)c1C (stereo unspecified)")
"30.3 µM (inactive)"
>>> result("Cc1c(-c2ccccc2)c(=O)oc2ccc(Cl)cc12")
"> 100 µM (inactive)"

Now take the following compound into account.
Exam item: Provide measured GI50 value, entry: `C/C(=N/NC(=S)N1CC2CCC(CC2)C1)c1cnccn1`
Marked response: < 0.01 µM (active)

src = ChEMBL document CHEMBL1201862
